Sourced from paper PMC11407372

# Tested on: MCF-7 cells
# procedureText: Apoptosis assay (Annexin V/7-AAD, flow cytometry)
# Assay type: cell-based, human
# statedConditions: sample at IC50 concentration, 24 h
Consider the following compounds; for each one, report its cell % Apoptotic, MCF-7.
One number for each entry, in %.

N.N.[Cl][Pt][Cl] [CisPt, cis-diamminedichloroplatinum(II), reference compound]    3.45
[O-]N=C1C(=NO)N(c2ccc(F)cc2F)CN1c1ccc(F)cc1F.[O-]N=C1C(=NO)N(c2ccc(F)cc2F)CN1c1ccc(F)cc1F.[Pt+2] [L 1c Pt-b]    2.05
O[N+]1=C2C(=[N+](O)[Pt-2]1([Cl])[Cl])N(c1ccc(F)cc1F)CN2c1ccc(F)cc1F [L 1c Pt-m]    5.95
O[N+]1=C2C(=[N+](O)[Pt-2]1([Cl])[Cl])N(c1ccc(F)cc1)CN2c1ccc(F)cc1 [L 1b Pt-m]    3.65
[O-]N=C1C(=NO)N(c2ccc(F)cc2)CN1c1ccc(F)cc1.[O-]N=C1C(=NO)N(c2ccc(F)cc2)CN1c1ccc(F)cc1.[Pt+2] [L 1b Pt-b]    2.95

I'm hoping you can list cell % Apoptotic, MCF-7 for every compound here, please.
1. CC(O)(CS(=O)(=O)c1ccc(F)cc1)C(=O)Nc1ccc(C#N)c(C(F)(F)F)c1 (stereo not shown) [Bical, bicalutamide, reference compound]
2. [O-]N=C1C(=NO)N(c2ccccc2)CN1c1ccccc1.[O-]N=C1C(=NO)N(c2ccccc2)CN1c1ccccc1.[Pt+2] [L 1a Pt-b]

-- reply
2.05
4.65
